experiment: qHTS Assay for Modulators of miRNAs and/or Inhibitors of miR-21; conditions: HeLa miR-21-FLuc reporter, luciferase luminescence, 48 h; actives lower the signal; also: potency is read from the fitted curve at half-maximal effect; nearly all actives have a fitted effect of over 55% in size
Among all 340,000 compounds or so, about 3,300 (0.97%) were called active. Inconclusive results (about 9%) are left out. The list shows a part of the results.
Form field: Potency (one value per entry).

# example entries with known answers
Cc1ccc(OCCCSc2ncccn2)cc1C	14.7 µM (active)
CC1CCc2c(sc(/N=C/N(C)C)c2C#N)C1 (configuration not stated)	7.36 µM (active)
CCOc1cc(/C=N/O)ccc1OCc1ccccc1F	16.5 µM (active)
CCCC(=O)N=C1SC2CS(=O)(=O)CC2N1c1ccc(-c2nc3ccc(C)cc3s2)cc1 (configuration not stated)	2.93 µM (active)
O=C(Nc1cccnc1Cl)c1cc(-c2ccccc2O)on1	2.61 µM (active)

Record summary for Clc1ccc(OCCSc2ncccn2)c(Br)c1 : reported Potency = 1.31 µM (active)

// sample CN1CCc2c(sc3c2C(=O)NC(c2cccc(OC(=O)c4cccs4)c2)N3)C1 (configuration not stated) , its Potency was 18.5 µM (active)

// Potency lookup, compound = CN(C)/C=N/c1sc2c(c1C#N)CCCCC2 , result: 5.21 µM (active)
